Reported inhibition is given for each of the following compounds.
Test system: Beta-hexosaminidase (Homo sapiens)
Assay: Inhibition of human Placental beta-N-acetylglucosaminidase at 1000 uM
Reply with just the number (in %).

Some compounds with recorded inhibition:
| cpd-smiles | output-unit | endpoint-result |
| --- | --- | --- |
| O=C(O)[C@@H]1NC[C@H](O)[C@@H](O)[C@@H]1O | % | 5.4 |
| O=C(O)[C@H]1NC[C@H](O)[C@@H](O)[C@H]1O | % | 2.6 |
| O=C(O)[C@@H]1NC[C@H](O)[C@@H](O)[C@H]1O | % | 42 |
| O=C(O)[C@@H]1NC[C@@H](O)[C@H](O)[C@H]1O | % | 50 |
| O=C(O)[C@H]1NC[C@@H](O)[C@@H](O)[C@@H]1O | % | 28 |
| O=C(O)[C@H]1NCCC[C@@H]1O | % | 36 |

Q) Could you share which inhibition value was measured for `O=C(O)[C@@H]1NC[C@@H](O)[C@@H](O)[C@H]1O` ?
A) 26
